Form field: EC50 (one value per entry).
# Target Or System: FPR2 (Homo sapiens, UniProt P25090)
# Sequence (P25090 whole entry, species assumed): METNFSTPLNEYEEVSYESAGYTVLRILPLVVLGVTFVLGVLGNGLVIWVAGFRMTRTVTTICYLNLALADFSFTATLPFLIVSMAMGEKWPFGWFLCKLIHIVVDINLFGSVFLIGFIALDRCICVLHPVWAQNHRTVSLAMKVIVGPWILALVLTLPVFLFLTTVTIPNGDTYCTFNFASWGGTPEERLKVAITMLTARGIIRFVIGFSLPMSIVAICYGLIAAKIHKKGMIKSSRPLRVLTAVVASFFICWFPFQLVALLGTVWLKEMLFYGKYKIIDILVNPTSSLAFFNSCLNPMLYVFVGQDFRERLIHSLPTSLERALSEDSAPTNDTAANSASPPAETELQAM
# Protocol Details: Change in calcium activity by peptide (Fura-2) in RBL cells overexpressing FPR2
# Condition: calcium activity (Fura-2), graded per Table 3, read-out: EC50 for [Ca^2+] FPR2
# Procedure: The present inventors observed changes in calcium ion permeability to confirm whether the immunomodulatory peptide candidates prepared according to one example of the present invention activate the immune function of a living organism. Specifically, the concentration of calcium ions in cells was measured to confirm whether the peptides activate FPR2. […]
Peptide text beside a SMILES is read from it.

>  <Compound>
CC[C@H](C)[C@H](N)C(=O)N[C@@H](CCCCN)C(=O)N[C@@H](Cc1ccccc1)C(=O)N[C@@H](CCCCN)C(=O)N[C@@H](Cc1ccc(O)cc1)C(=O)N[C@H](CCSC)C(N)=O [Peptide 131] (HELM PEPTIDE1{I.K.F.K.Y.[dM].[am]}$$$$V2.0)

>  <Target Or System>
FPR2 (Homo sapiens, UniProt P25090)

>  <EC50>
11 to 100 nM

$$$$

Problem: Give the observed EC50 of CCCC(=O)N[C@@H](CCCCN)C(=O)N[C@@H](CCSC)C(=O)N[C@@H](CCCCN)C(=O)N[C@@H](Cc1ccc(O)cc1)C(=O)N[C@@H](CCCCN)C(=O)N1CCC[C@H]1C(=O)N[C@H](CCSC)C(N)=O [Peptide 68] (HELM PEPTIDE1{[CCCC(=O)[*:2]].K.M.K.Y.K.P.[dM].[am]}$$$$V2.0) for FPR2 (Homo sapiens, UniProt P25090).
Solution: < 10 nM

Problem: Provide EC50, system FPR2 (Homo sapiens, UniProt P25090), entry CSCC[C@@H](NC(=O)[C@H](Cc1ccc(O)cc1)NC(=O)[C@H](CCCCN)NC(=O)[C@H](Cc1ccc(O)cc1)NC(=O)[C@H](CCCNC(=N)N)NC(=O)[C@@H](N)Cc1c[nH]c2ccccc12)C(N)=O [Peptide 35] (HELM PEPTIDE1{W.R.Y.K.Y.[dM].[am]}$$$$V2.0)
Solution: < 10 nM

Problem: Write down measured EC50 (FPR2 (Homo sapiens, UniProt P25090)) for this compound. CSCC[C@H](NC(=O)[C@H](CCCCN)NC(C)=O)C(=O)N[C@@H](CCCCN)C(=O)N[C@@H](Cc1ccc(O)cc1)C(=O)N[C@@H](CCCCN)C(=O)N1CCC[C@H]1C(=O)N[C@H](CCSC)C(N)=O [Peptide 67] (HELM PEPTIDE1{[ac].K.M.K.Y.K.P.[dM].[am]}$$$$V2.0)
Solution: < 10 nM

Problem: GET EC50 | system: FPR2 (Homo sapiens, UniProt P25090) | item: CSCC[C@H](NC(=O)[C@@H](N)Cc1c[nH]cn1)C(=O)N[C@@H](CCCNC(=N)N)C(=O)N[C@@H](Cc1ccc(O)cc1)C(=O)N[C@@H](CCCNC(=N)N)C(=O)N[C@H](C(=O)N[C@H](CCSC)C(N)=O)C(C)C [Peptide 31] (HELM PEPTIDE1{H.M.R.Y.R.V.[dM].[am]}$$$$V2.0)
Solution: < 10 nM

Problem: Print FPR2 (Homo sapiens, UniProt P25090) EC50 for CCCCCCCC(=O)N[C@@H](CCCNC(=N)N)C(=O)N[C@@H](CCSC)C(=O)N[C@@H](CCCNC(=N)N)C(=O)N[C@@H](Cc1ccc(O)cc1)C(=O)N[C@@H](Cc1ccc(O)cc1)C(=O)N[C@H](C(=O)N[C@H](CCSC)C(N)=O)C(C)C [Peptide 99] (HELM PEPTIDE1{[CCCCCCCC(=O)[*:2]].R.M.R.Y.Y.V.[dM].[am]}$$$$V2.0) .
Solution: 11 to 100 nM

Problem: # return EC50 for CCCCCCCC(=O)N[C@@H](CCCCN)C(=O)N[C@@H](CCSC)C(=O)N[C@@H](CCCCN)C(=O)N[C@@H](Cc1ccc(O)cc1)C(=O)N[C@@H](CCCCN)C(=O)N1CCC[C@H]1C(=O)N[C@H](CCSC)C(N)=O [Peptide 69] (HELM PEPTIDE1{[CCCCCCCC(=O)[*:2]].K.M.K.Y.K.P.[dM].[am]}$$$$V2.0) , test system: FPR2 (Homo sapiens, UniProt P25090)
Solution: 11 to 100 nM
